- System: MT4
- Experiment description: Tested in vitro for the antiviral activity in MT-4 cells infected with HIV-1
- Format: functional, cell-based
- Condition summary: Homo sapiens
Observation type: EC50 (nM)
Note: unit nM is implicit; provide only the numeric part.

Problem: Provide one value: measured EC50 of Cc1cn([C@H]2C=C[C@@H](CO)O2)c(=O)[nH]c1=O
Result: 280

***
Problem: Provide one value: measured EC50 of CC(=O)SCCOP(=O)(OCCSC(C)=O)OCC1C=CC(n2cc(C)c(=O)[nH]c2=O)O1 (configuration not stated)
Result: 16

----------
- Test system: CEM-TK(-)
- Experiment description: Tested in vitro for the antiviral activity in CEM/TK- cells infected with HIV-1
- Type: functional, cell-based
- Condition summary: Homo sapiens
Reported values of pEC50 for individual entries
Friendly reminder that pEC50 comes from taking -log10 of the concentration in mol/L.

Problem: Provide one value: measured pEC50 of CC(=O)SCCOP(=O)(OCCSC(C)=O)OCC1C=CC(n2cc(C)c(=O)[nH]c2=O)O1 (configuration not stated)
Result: 7.92

***
Problem: Provide one value: measured pEC50 of Cc1cn([C@H]2C=C[C@@H](CO)O2)c(=O)[nH]c1=O
Result: 5.00
